Data origin, for the record: the supplement of paper PMC8728848

- assayedSystem: GlcNAc(b1-3)[GlcNAc(b1-6)]GalNAc
- assayComment: glycan array binding signal (z-score within array); higher = stronger binding
- conditionSet: glycan notation: IUPAC condensed, linker removed
Only a selection was taken, and the strongest signals are over-represented in it overall.
The reader will find reported glycan array binding signal (z-score) values listed item by item below.
assayEndpoint: glycan array binding signal (z-score)

binder: SJCP3842 (Schistosoma japonicum) (protein) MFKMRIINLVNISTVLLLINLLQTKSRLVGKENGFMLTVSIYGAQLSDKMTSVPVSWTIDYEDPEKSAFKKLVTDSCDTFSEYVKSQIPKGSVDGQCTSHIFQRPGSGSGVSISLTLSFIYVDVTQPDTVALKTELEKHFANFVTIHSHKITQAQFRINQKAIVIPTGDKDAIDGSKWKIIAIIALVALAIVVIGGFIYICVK
assayEndpoint: glycan array binding signal (z-score)
observedMeasurement: -0.578
--
binder: Epa3 (Candida glabrata), Q6VBI8_CANGB (protein) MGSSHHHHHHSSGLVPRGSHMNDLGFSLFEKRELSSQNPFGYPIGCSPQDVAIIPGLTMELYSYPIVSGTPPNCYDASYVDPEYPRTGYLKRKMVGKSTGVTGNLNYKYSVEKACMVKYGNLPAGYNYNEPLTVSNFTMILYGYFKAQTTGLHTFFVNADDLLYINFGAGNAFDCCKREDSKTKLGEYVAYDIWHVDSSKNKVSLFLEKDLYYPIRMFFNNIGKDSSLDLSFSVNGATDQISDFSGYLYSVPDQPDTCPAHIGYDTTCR
assayEndpoint: glycan array binding signal (z-score)
observedMeasurement: -0.176
--
binder: 3FTT (Staphylococcus aureus), Q5HCZ5 (protein) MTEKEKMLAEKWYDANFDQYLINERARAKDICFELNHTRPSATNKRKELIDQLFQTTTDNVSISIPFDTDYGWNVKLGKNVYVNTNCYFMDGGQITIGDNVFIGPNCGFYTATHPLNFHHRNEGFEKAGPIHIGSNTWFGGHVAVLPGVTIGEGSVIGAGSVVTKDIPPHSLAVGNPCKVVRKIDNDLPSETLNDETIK
assayEndpoint: glycan array binding signal (z-score)
observedMeasurement: -0.288
